experiment: AUClast in SPF Sprague-Dawley rat at 10 mg/kg, po by LC-MS/MS analysis; type: ADME, organism-based; parameters: dose 10 mg/kg, time 0 - last, route oral; conditions: in vivo
PARAMETER: AUC(0-t)

item_smiles=O=C(O)CCc1cc(F)c(OCc2c(-c3ccc(Cl)cc3F)nsc2C(F)(F)F)c(F)c1 data_value="4470 ng·h/mL"

* * *

target: Free fatty acid receptor 1 (Homo sapiens); assay: Agonist activity at human GPR40 by calcium flux assay
Sequence (O14842 whole entry): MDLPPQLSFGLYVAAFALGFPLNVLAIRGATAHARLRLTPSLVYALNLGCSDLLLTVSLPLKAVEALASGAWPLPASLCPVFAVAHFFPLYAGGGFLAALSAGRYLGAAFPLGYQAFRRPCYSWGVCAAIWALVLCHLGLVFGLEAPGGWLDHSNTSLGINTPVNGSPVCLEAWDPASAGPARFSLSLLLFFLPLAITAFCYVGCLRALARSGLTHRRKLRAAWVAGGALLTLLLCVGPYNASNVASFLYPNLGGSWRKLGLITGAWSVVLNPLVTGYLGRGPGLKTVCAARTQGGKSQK
PARAMETER: EC50 (µM)

item_smiles=O=C(O)CCc1cc(F)c(OCc2c(-c3ccc(Cl)cc3F)nsc2C(F)(F)F)c(F)c1 relation=> data_value=5
item_smiles=O=C(O)CCc1cc(F)c(OCc2c(-c3ccc(Cl)c(F)c3)nsc2C(F)(F)F)c(F)c1 relation== data_value=3

* * *

experiment: Oral bioavailability in SPF Sprague-Dawley rat at 10 mg/kg by LC-MS/MS analysis; assay type: ADME, organism-based; conditions: in vivo
PARAMETER: bioavailability (%)

item_smiles=O=C(O)CCc1cc(F)c(OCc2c(-c3ccc(Cl)cc3F)nsc2C(F)(F)F)c(F)c1 data_value=57.2

* * *

target: PXR (nuclear receptor subfamily 1 group I member 2) (Homo sapiens); assay: Activation of PXR (unknown origin) at 5 uM relative to control; settings: read-out: Activity
Sequence (O75469 whole entry): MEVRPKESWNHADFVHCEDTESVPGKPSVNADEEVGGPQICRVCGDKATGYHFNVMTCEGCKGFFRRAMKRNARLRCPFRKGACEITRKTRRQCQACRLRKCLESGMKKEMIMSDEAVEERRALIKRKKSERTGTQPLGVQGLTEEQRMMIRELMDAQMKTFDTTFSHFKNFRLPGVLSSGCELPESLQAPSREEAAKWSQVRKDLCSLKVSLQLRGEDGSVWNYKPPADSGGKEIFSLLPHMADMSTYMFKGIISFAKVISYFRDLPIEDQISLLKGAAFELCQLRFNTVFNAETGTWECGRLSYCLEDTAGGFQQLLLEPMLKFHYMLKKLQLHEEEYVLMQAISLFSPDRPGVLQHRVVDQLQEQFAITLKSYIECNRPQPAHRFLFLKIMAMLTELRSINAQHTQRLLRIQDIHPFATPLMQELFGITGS
PARAMETER: activity at 5 µM (%)

item_smiles=O=C(O)CCc1cc(F)c(OCc2c(-c3ccc(Cl)cc3F)nsc2C(F)(F)F)c(F)c1 units_symbol=% data_value=25.4

* * *

molecular target: UniProtKB Q5NUL3; assay: Agonist activity at human GPR120 short splice variant expressed in HEK293 cells assessed as increase in intracellular calcium flux incubated for 30 mins measured for 300 secs at 1 sec interval by Fluo-4 NW dye based FLIPR assay; type: functional, cell-based
Sequence (Q5NUL3 whole entry, looked up, stated change not applied, canonical isoform): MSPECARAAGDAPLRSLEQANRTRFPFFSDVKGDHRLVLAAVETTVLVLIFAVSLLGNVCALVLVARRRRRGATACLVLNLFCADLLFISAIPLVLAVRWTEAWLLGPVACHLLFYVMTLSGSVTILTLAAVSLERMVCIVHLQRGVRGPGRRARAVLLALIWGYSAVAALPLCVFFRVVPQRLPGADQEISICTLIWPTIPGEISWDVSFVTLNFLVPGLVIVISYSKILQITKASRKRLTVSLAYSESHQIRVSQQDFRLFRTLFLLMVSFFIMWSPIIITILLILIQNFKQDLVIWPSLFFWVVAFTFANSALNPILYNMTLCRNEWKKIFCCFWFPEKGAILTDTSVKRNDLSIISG
pEC50: −log10 of the molar value.
Respond with true for pEC50 values of 7 and above, false for values below.

item_smiles=CCc1ccc(-c2sncc2COc2ccc(CCC(=O)O)c(C)c2C)cc1 system_under_test="UniProtKB Q5NUL3" assigned_category=false
item_smiles=CCc1cc(CCC(=O)O)ccc1OCc1c(-c2ccc(Cl)cc2)nsc1C(F)(F)F system_under_test="UniProtKB Q5NUL3" assigned_category=false
item_smiles=CCc1ccc(-c2nsc(C(F)(F)C(F)(F)F)c2COc2ccc(CCC(=O)O)c(C)c2C)cc1 system_under_test="UniProtKB Q5NUL3" assigned_category=false
item_smiles=Cc1c(CCC(=O)O)ccc(OCc2csnc2-c2ccc(Cl)cc2)c1C system_under_test="UniProtKB Q5NUL3" assigned_category=false
item_smiles=O=C(O)CCc1cc(F)c(OCc2c(-c3ccc(Cl)cc3F)nsc2C(F)(F)F)c(F)c1 system_under_test="UniProtKB Q5NUL3" assigned_category=true
item_smiles=O=C(O)CCc1c(F)c(F)c(OCc2c(-c3ccc(Cl)cc3)nsc2C(F)(F)F)c(F)c1F system_under_test="UniProtKB Q5NUL3" assigned_category=false
item_smiles=CCc1ccc(-c2nsc(C(C)C)c2COc2ccc(CCC(=O)O)c(C)c2C)cc1 system_under_test="UniProtKB Q5NUL3" assigned_category=false
item_smiles=O=C(O)CCc1cc(F)c(OCc2c(-c3ccc(OC(F)(F)F)cc3)nsc2C(F)(F)F)c(F)c1 system_under_test="UniProtKB Q5NUL3" assigned_category=false
item_smiles=CCc1ccc(-c2snc(Cl)c2COc2ccc(CCC(=O)O)c(C)c2C)cc1 system_under_test="UniProtKB Q5NUL3" assigned_category=true
item_smiles=O=C(O)CCc1cc(F)c(OCc2c(-c3ccc(Cl)cc3)nsc2C(F)(F)F)c(F)c1 system_under_test="UniProtKB Q5NUL3" assigned_category=true
item_smiles=O=C(O)CCc1ccc(OCc2c(-c3ccc(Cl)cc3)nsc2C(F)(F)F)cc1C(F)(F)F system_under_test="UniProtKB Q5NUL3" assigned_category=false
item_smiles=CCc1ccc(-c2nsc(CC)c2COc2ccc(CCC(=O)O)c(C)c2C)cc1 system_under_test="UniProtKB Q5NUL3" assigned_category=false
